- System: MUTZ-3 cells
- assay_notes: GARD random forest model for prediction of CLP categories (52 transcripts, Example A)
- condition_summary: Suppl. Table 1, separate replicates in the test set
Reported predicted CLP is given for each of the following compounds.
Answer with a number only, understood to be in A.

// query For the compound CC(C)(c1ccc(OCC2CO2)cc1)c1ccc(OCC2CO2)cc1 (stereo not drawn) , report predicted CLP.
// result 1

// next item, predicted CLP requested
// query For the compound O=C1C=CC(=O)C=C1 , report predicted CLP.
// result 1

###

Reported GARD predicted CLP is given for each of the following molecules.
- System: MUTZ-3 cells
- assay_notes: GARD random forest model for prediction of CLP categories (52 transcripts, Example A)
- condition_summary: Table 6, independent test set, majority voting across replicates
Structures can show the parent of a compound that is named as a salt.
Answer with a number only, understood to be in A.

These recorded examples may help you get a feel for the data.
// query For the molecule CCCOC(=O)c1cc(O)c(O)c(O)c1 [propyl gallate] , report GARD predicted CLP.
// result 1

// query For the molecule O=CCCCC=O [glutaraldehyde] , report GARD predicted CLP.
// result 1

// query For the molecule CCOC(=O)/C=C\C(=O)OCC [diethyl maleate] , report GARD predicted CLP.
// result 1

// query For the molecule O=C1C=CC(=O)C=C1 [p-benzoquinone] , report GARD predicted CLP.
// result 1

// query For the molecule CC(C)(O)CCCC1=CCC(C=O)CC1 (stereo not drawn) [lyral] , report GARD predicted CLP.
// result 1

// next item, GARD predicted CLP requested
// query For the molecule CC(C)(c1ccc(OCC2CO2)cc1)c1ccc(OCC2CO2)cc1 (stereo not drawn) [bisphenol A-diglycidyl ether] , report GARD predicted CLP.
// result 1
